ASSAY_TEXT: Michaelis constant (Km) was determined
Type: ADME
MEASUREMENT_NAME: Km (µM)
Write the answer as a number in µM, unit excluded.

Lab note: CC(=O)CC(O)/C=C/c1ccc(C(F)(F)F)cc1 (stereo unspecified) gave Km of 239

Lab note: COc1ccc(/C=C/C(O)CC(C)=O)cc1 (stereo unspecified) gave Km of 522

----------
Recorded k cat values for a group of compounds are listed next.
ASSAY_TEXT: Catalytic constant from Lineweaver-Burke analysis for antibody catalyzed retrograde aldol reaction with the compound
Type: ADME
Write the answer as a number in min⁻¹, unit excluded.

>  <COMPOUND>
CC(=O)CC(O)/C=C/c1ccc(C(F)(F)F)cc1 (stereo unspecified)

>  <UNIT_DESCRIPTOR>
min⁻¹

>  <k cat>
0.136

$$$$
>  <COMPOUND>
CC(=O)CC(O)/C=C/c1ccc(N(C)C)cc1 (stereo unspecified)

>  <UNIT_DESCRIPTOR>
min⁻¹

>  <k cat>
2.52

$$$$
>  <COMPOUND>
COc1ccc(/C=C/C(O)CC(C)=O)cc1 (stereo unspecified)

>  <UNIT_DESCRIPTOR>
min⁻¹

>  <k cat>
0.4

$$$$

Lab note: CC(=O)CC(O)/C=C/c1ccc([N+](=O)[O-])cc1 (stereo unspecified) gave k cat of 0.078

Lab note: CC(=O)CC(O)/C=C/c1ccc(Cl)cc1 (stereo unspecified) gave k cat of 0.169

Lab note: CC(=O)CC(O)/C=C/c1ccccc1 (stereo unspecified) gave k cat of 0.087

----------
ASSAY_TEXT: Michaelis constant (Km) was determined
Format: ADME
Recorded Km values for a group of compounds are listed next.
Value and unit, in that order.

>  <COMPOUND>
CC(=O)CC(O)/C=C/c1ccc([N+](=O)[O-])cc1 (centres undefined)

>  <Km>
140 µM

$$$$
>  <COMPOUND>
CC(=O)CC(O)/C=C/c1ccccc1 (centres undefined)

>  <Km>
415 µM

$$$$
>  <COMPOUND>
CC(=O)CC(O)/C=C/c1ccc(Cl)cc1 (centres undefined)

>  <Km>
324 µM

$$$$

Lab note: CC(=O)CC(O)/C=C/c1ccc(N(C)C)cc1 (centres undefined) gave Km of 1250 µM
